molecular target: Bromodomain testis-specific protein (Homo sapiens, UniProt Q58F21); assay: Binding affinity to His6-fused BRDT BD1 (unknown origin) assessed as change in melting temperature at 100 uM incubated for 30 mins by thermal shift assay
quantity: ΔTm (°C)
# unit: °C | format: bare number

Solved cases (3 shown):
# structure-as-smiles, unit-abbrev, obs-value
records = [
    ("Cc1cc(F)cc(C)c1Oc1ccc(C(C)(C)O)cc1-c1cn(C)c(=O)c2cc(-c3cnc(C4CC4)[nH]3)oc12", "°C", 2.75),
    ("Cc1cc(F)cc(C)c1Oc1ccc(C(C)(C)O)cc1-c1cn(C)c(=O)c2cc(-c3cnc(C4CCCCC4)[nH]3)oc12", "°C", 2),
    ("Cc1cc(F)cc(C)c1Oc1ccc(C(C)(C)O)cc1-c1cn(C)c(=O)c2cc(-c3cnc(C4CCCC4)[nH]3)oc12", "°C", 2),
]

Proceed to the following item.
Endpoint output: ΔTm of `Cc1cc(F)cc(C)c1Oc1ccc(C(C)(C)O)cc1-c1cn(C)c(=O)c2cc(-c3cnc(C4CCC4)[nH]3)oc12` . Value?
3

Data origin, for the record: ChEMBL document CHEMBL5154816
